target: T1, full length human GLP-1R with N-terminal FLAG tag and C-terminal GFP tag, on CHO cells (human, UniProt P43220 24-463); assay: flow cytometry, expressing vs parent CHO cells
T1 construct: whole, on cells; the cell line itself is tied to UniProt P43220; also called FLAG-GLP-1R-GFP; CHO-GLP-1R
measurement-label: MFI Ratio
Please state the value as a number alone, without comment.

>  <binder>
GLP1R-222-082 (antibody, V domains shown, IgG) VH: QVQLVESGGGVVQPGRSLRLSCAASGFTFSAYSMHWVRQAPGKGLEWVALISYDATNKYYADSVKGRFTISRDNSKNTLYLQMNSLRAEDTAVYYCAKHMSMQEGAVTGEFQAAKEFIAWLVKGRVRADLVGDAFDVWGQGTLVTVSS VL: QSVLTQPPSVSAAPGQKVTISCSGSSSNIGSKYVSWYQQLPGTAPKLLIYDNNKRPSGIPDRFSGSKSGTSATLGITGLQTGDEADYYCGTWDISPSAWVFGGGTKLTVL

>  <MFI Ratio>
711

$$$$
>  <binder>
GLP1R-222-014 (antibody, V domains shown, IgG) VH: QVQLVESGGGVVQPGRSLRLSCAASGFAFSNYGMHWVRQAPGKGLEWVSFISYDESNKYYADSVKGRFTISRDNSKNTLYLQMNNLRAEDTAVYYCAKHMSMQEGAVTGEWQAAKEFIAWLVKGRVRADLVGDAFDVWGQGTLVTVSS VL: QSVLTQPPSVSAAPGQKVTISCSGSSSNIGNHDVSWYQQLPGTAPKLLIYDNNKRHSGIPDRFSGSKSGTSATLGITGLQTGDEADYYCGTWDTSLSAGVFGGGTKLTVL

>  <MFI Ratio>
794

$$$$
>  <binder>
GLP1R-222-056 (antibody, V domains shown, IgG) VH: QVQLVESGGGVVQPGRSLRLSCAASGFPFSSYAMHWVRQAPGKGLEWVAVISYDRSNKYYADSVKGRFTISRDNSKNTLYLQMNSLRAEDTAVYYCAKHMSMQEGAVTGYGQAAKEFIAWLVKGFVRADLVGDAFDVWGQGTLVTVSS VL: QSVLTQPPSVSAAPGQKVTISCSGSSSNIGSNYISWYQQLPGTAPKLLIYDNDKRPAGIPDRFSGSKSGTSATLGITGLQTGDEADYYCGTWDTSLSVGEFGGGTKLTVL

>  <MFI Ratio>
946

$$$$

Determine from records and report MFI Ratio for GLP1R-222-081 (antibody, V domains shown, IgG) VH: QVQLVESGGGVVQPGRSLRLSCAASGFTFDNYALHWVRQAPGKGLEWVALISYDAGNKYYADSVKGRFTISRDNSKNTLYLQMNSLRAEDTAVYYCAKHMSMQEGAVTGEGQAAKEFIAWLVKGFVRADLVGDAFDVWGQGTLVTVSS VL: QSVLTQPPSVSAAPGQKVTISCSGSSSNIGSDYVSWYQQLPGTAPKLLIYDNNKRSSGIPDRFSGSKSGTSATLGITGLQTGDEADYYCGTWDESLRSWVFGGGTKLTVL
850

Give reported MFI Ratio value for GLP1R-222-023 (antibody, V domains shown, IgG) VH: QVQLVESGGGVVQPGRSLRLSCAASGFSFSDYGMHWVRQAPGKGLEWVAFISYDANNKYYADSVKGRFTISRDNSKNTLYLQMNSLRAEDTAVYYCAKHMSMQEGAVTGEWQAAKEFIAWLVKGRVRADLVGDAFDVWGQGTLVTVSS VL: QSVLTQPPSVSAAPGQKVTISCSGSSSNIGNNDVSWYQQLPGTAPKLLIYENTKRPSGIPDRFSGSKSGTSATLGITGLQTGDEADYYCGTWDAGLSTGVFGGGTKLTVL
778

Give the measured MFI Ratio for GLP1R-222-073 (antibody, V domains shown, IgG) VH: QVQLVESGGGVVQPGRSLRLSCAASGFTFRDYGMHWVRQAPGKGLEWVAFIRYDEINKYYADSVKGRFTISRDNSKNTLYLQMNSLRAEDTAVYYCAKHMSMQEGAVTGEGQAAKEFIAWLVGGRVRADLVGDAFDVWGQGTLVTVSS VL: QSVLTQPPSVSAAPGQKVTISCSGSGSNIGNNDVSWYQQLPGTAPKLLIYDNNKRASGIPDRFSGSKSGTSATLGITGLQTGDEADYYCGTWDRGPNTGVFGGGTKLTVL
984

Input GLP1R-222-052 (antibody, V domains shown, IgG) VH: QVQLVESGGGVVQPGRSLRLSCAASGFTFNNYPMHWVRQAPGKGLEWVAVISYDESNKYYADSVKGRFTISRDNSKNTLYLQMNSLRAEDTAVYYCAKHMSMQEGAVTGGGQAAKEFIAWLVKGRVRADLVGDAFDVWGQGTLVTVSS VL: QSVLTQPPSVSAAPGQKVTISCSGSSSNIGKRSVSWYQQLPGTAPKLLIYDNNKRASGIPDRFSGSKSGTSATLGITGLQTGDEADYYCVTWDRSLSAGVFGGGTKLTVL , output reported MFI Ratio.
13.7

Specify reported MFI Ratio for the binder shown: GLP1R-222-090 (antibody, V domains shown, IgG) VH: QVQLVESGGGVVQPGRSLRLSCAASGFSFSDYGIHWVRQAPGKGLEWVALISYEGSNKYYADSVKGRFTISRDNSKNTLYLQMNSLRAEDTAVYYCAKHMSMQEGAVTGEKQAAKEFIAWLVKGRVRADLVGDAFDVWGQGTLVTVSS VL: QSVLTQPPSVSAAPGQKVTISCSGSSSNIADNYVSWYQQLPGTAPKLLIYDNNKRASGIPDRFSGSKSGTSATLGITGLQTGDEADYYCATWDNRLSAGVFGGGTKLTVL
525

Name the recorded MFI Ratio of the item GLP1R-222-012 (antibody, V domains shown, IgG) VH: QVQLVESGGGVVQPGRSLRLSCAASGFTFNNYGMHWVRQAPGKGLEWVAVISDEGSNKYYADSVKGRFTISRDNSKNTLYLQMNSLRAEDTAVYYCAKHMSMQEGAVTGVGQAAKEFIAWLVKGRVRADLVGDAFDVWGQGTLVTVSS VL: QSVLTQPPSVSAAPGQKVTISCSGSSSNIGNNDVSWYQQLPGTAPKLLIYDDDKRPSGIPDRFSGSKSGTSATLGITGLQTGDEADYYCGTWDTSLSVGEFGGGTKLTVL in your answer.
775

Provide MFI Ratio value for the following binder: GLP1R-3 (antibody, human IgG2, lambda, V domains shown, full length human IgG2; also called GLP1R01-3) VH: QVQLVESGGGVVQPGRSLRLSCAASGFTFSSYGMHWVRQAPGKGLEWVSFISYDESNKYYADSVKGRFTISRDNSKNTLYLQMNSLRAEDTAVYYCAKHMSMQEGAVTGEGQAAKEFIAWLVKGRVRADLVGDAFDVWGQGTLVTVSS VL: QSVLTQPPSVSAAPGQKVTISCSGSSSNIADNYVSWYQQLPGTAPKLLIYDNNKRPSGIPDRFSGSKSGTSATLGITGLQTGDEADYYCGTWDNYLGAGVFGGGTKLTVLG
740
